Listed compounds paired with reported viability
assay: SK-BR-3 cell growth inhibitors, pilot screen, 24 h, human (AID 572); settings: SK-BR-3 viability, CellTiter-Glo luminescence, at 10 µM, active compounds read low;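 further: compound exposure lasted between 18 and 24 h rather than exactly 24 h; 100% = carrier-treated control wells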
Just the number please, in %, no unit attached.

Worked examples, 6 compounds total:
Prompt line: Return reported viability; argument: COc1cccc(Oc2cnc(N)nc2-c2ccc(OC)cc2O)c1
Response line: 91.5

Prompt line: Return reported viability; argument: CCOC(=O)c1ccc(-c2c(C(=O)OCC)oc3cc(O)c(CC)cc3c2=O)o1
Response line: 96.5

Prompt line: Return reported viability; argument: COC(=O)c1nn(-c2ccc(-c3ccccc3)cc2)cc1O
Response line: 94

Prompt line: Return reported viability; argument: O=C(CN1CCCC1)Nc1ccc(NC(=O)Nc2ccccc2)cc1
Response line: 92.5

Prompt line: Return reported viability; argument: Cc1nc2ccc(NC(=O)N3CCOCC3)cc2s1
Response line: 87.5

Prompt line: Return reported viability; argument: COc1ccc(OC)c(C2C(C(=O)Nc3cccnc3)=C(C)NC3=C2C(=O)CCC3)c1 (configuration not stated)
Response line: 101

---
Prompt line: Return reported viability; argument: CS(=O)(=O)N(Cc1nc2sc3c(c2c(=O)[nH]1)CCCC3)C1CCCCC1
Response line: 91
